Cited source for all entries: patent US9346809B2

The following molecules are listed with their measured EC50 values.
Biological target: TYK2 (aa 871-1187, catalytic domain, GST-tag) (Homo sapiens, UniProt P29597)
Construct: JAK1 (aa 850-1154) and TYK2 (aa 871-1187) are expressed with an N-terminally fused GST-tag; GST (N); purchased Carna Biosciences, Inc; host or cells: baculovirus expression system
Sequence (P29597 871-1187): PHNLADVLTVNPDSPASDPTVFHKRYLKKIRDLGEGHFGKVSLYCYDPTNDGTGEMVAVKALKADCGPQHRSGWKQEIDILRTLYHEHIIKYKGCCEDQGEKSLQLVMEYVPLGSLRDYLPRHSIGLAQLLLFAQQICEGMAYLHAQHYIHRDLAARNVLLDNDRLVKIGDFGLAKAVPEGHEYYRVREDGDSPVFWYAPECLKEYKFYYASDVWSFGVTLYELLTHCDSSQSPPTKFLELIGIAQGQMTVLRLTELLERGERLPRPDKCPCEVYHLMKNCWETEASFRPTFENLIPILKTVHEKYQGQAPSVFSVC
Experiment: JAK kinase assay (HTRF, phosphorylation of TK substrate-biotin), TYK2
Type: biochemical
Conditions: HTRF assay, ATP at Km (13 μM); read-out: TYK2 kinase inhibitory activity (EC50 indicator)

# annotated cases, reported EC50 shown
| MOL_SMILES | EC50 |
| --- | --- |
| N#Cc1ccccc1CC(=O)N1CCN(c2ccnc3[nH]ccc23)CC12CC2 | > 500 nM |
| Cc1cc(C(=O)N2CCN(c3ncnc4[nH]ccc34)CC23CC3)ccc1S(N)(=O)=O | < 100 nM |
| N#CCc1ccc(CC(=O)N2CCN(c3ncnc4[nH]cc(Cl)c34)CC23CC3)cc1 | > 500 nM |

Please report the recorded EC50 for `Cc1cncc(C(=O)N2CCN(c3ncnc4[nH]ccc34)CC23CC3)n1` .
< 100 nM

Please report the recorded EC50 for `N#Cc1ccc(C(=O)N2[C@@H]3CC[C@@H]2CN(c2ncnc4[nH]ccc24)C3)cc1F` .
100 to 500 nM

Please report the recorded EC50 for `CS(=O)(=O)c1cccc(C(=O)N2CCN(c3ncnc4[nH]ccc34)CC23CC3)c1` .
100 to 500 nM

Please report the recorded EC50 for `Nc1nc(N2CCN(C(=O)c3cnccn3)C3(CC3)C2)c2cc[nH]c2n1` .
> 500 nM

Please report the recorded EC50 for `NS(=O)(=O)c1ccc(C(=O)N2CCN(c3ncnc4[nH]ccc34)CC23CC3)s1` .
< 100 nM

Please report the recorded EC50 for `COc1cnc2[nH]ccc2c1N1CCN(C(=O)c2csc3ccccc23)C2(CC2)C1` .
> 500 nM

Please report the recorded EC50 for `NS(=O)(=O)c1ccc(C(=O)N2CCN(c3ncnc4[nH]ccc34)CC23CC3)cc1` .
< 100 nM

Please report the recorded EC50 for `N#CCC(=O)N1CCN(c2ccnc3[nH]ccc23)CC12CC2` .
> 500 nM

Please report the recorded EC50 for `N#Cc1ccc(CC(=O)N2CCN(c3nc(N)nc4[nH]ccc34)CC23CC3)cc1` .
100 to 500 nM

Please report the recorded EC50 for `Cc1cc(S(N)(=O)=O)ccc1C(=O)N1[C@@H]2CC[C@H]1CN(c1ncnc3[nH]ccc13)C2` .
> 500 nM

Please report the recorded EC50 for `N#Cc1cccc(C(=O)N2CCN(c3ncnc4[nH]cc(Cl)c34)CC23CC3)c1` .
> 500 nM

###

Molecular target: JAK3 (catalytic domain, His-tag) (Homo sapiens)
Construct: All four purified enzymes contain only the catalytic domain; His (N); purchased Carna Biosciences, Inc; host or cells: baculovirus expression system
Sequence (P52333 822-1111 limits assumed): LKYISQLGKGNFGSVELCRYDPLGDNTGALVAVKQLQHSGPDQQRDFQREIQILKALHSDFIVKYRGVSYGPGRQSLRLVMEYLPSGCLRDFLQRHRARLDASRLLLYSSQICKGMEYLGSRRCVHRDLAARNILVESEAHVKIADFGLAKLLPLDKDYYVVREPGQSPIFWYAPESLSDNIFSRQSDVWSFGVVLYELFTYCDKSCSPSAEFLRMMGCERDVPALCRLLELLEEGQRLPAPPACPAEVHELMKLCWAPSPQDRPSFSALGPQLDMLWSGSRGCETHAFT
Assay: JAK kinase assay (HTRF, phosphorylation of TK substrate-biotin), JAK3
Assay type: biochemical
Settings: HTRF assay, ATP at Km (2 μM); read-out: JAK3 kinase inhibitory activity (EC50)
The following compounds are listed with their measured EC50 values.

# annotated cases, reported EC50 shown
| COMPOUND | TGT | REPORTED_RESULT |
| --- | --- | --- |
| Cc1ccc(S(=O)(=O)N2CCN(c3ncnc4[nH]ccc34)CC23CC3)cc1 [Example 439] | JAK3 (catalytic domain, His-tag) (Homo sapiens) | < 100 nM |
| CN(CCC#N)S(=O)(=O)N1CCN(c2ncnc3[nH]ccc23)CC12CC2 [Example 458] | JAK3 (catalytic domain, His-tag) (Homo sapiens) | < 100 nM |

Would you kindly look at the next entry?
Please report the recorded EC50 for COCC(=S)N1CCN(c2ncnc3[nH]ccc23)CC12CC2 [Example 447] .
100 to 500 nM

###

Biological target: JAK2 (catalytic domain, His-tag) (Homo sapiens, UniProt O60674)
Construct: All four purified enzymes contain only the catalytic domain; His (N); purchased Carna Biosciences, Inc; host or cells: baculovirus expression system
Sequence (O60674 849-1124 limits assumed): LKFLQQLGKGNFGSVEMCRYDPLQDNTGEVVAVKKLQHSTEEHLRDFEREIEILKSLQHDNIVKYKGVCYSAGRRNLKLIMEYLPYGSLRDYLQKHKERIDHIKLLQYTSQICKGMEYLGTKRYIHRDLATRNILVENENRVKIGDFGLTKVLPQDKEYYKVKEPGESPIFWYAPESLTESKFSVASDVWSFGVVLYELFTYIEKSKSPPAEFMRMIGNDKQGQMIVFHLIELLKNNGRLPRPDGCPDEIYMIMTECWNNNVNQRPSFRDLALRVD
Experiment: JAK kinase assay (HTRF, phosphorylation of TK substrate-biotin), JAK2
Type: biochemical
Conditions: HTRF assay, ATP at Km (4 μM); read-out: JAK2 kinase inhibitory activity (EC50 indicator)
pEC50: −log10 of the molar value.
MEASURED_ATTRIBUTE: pEC50

| COMPOUND | pEC50 |
| --- | --- |
| O=C(c1cccc2cc(O)ccc12)N1[C@@H]2CC[C@@H]1CN(c1ncnc3[nH]ccc13)C2 | > 7.00 |
| O=C(c1cc2cc(F)ccc2[nH]1)N1CCN(c2ncnc3[nH]ccc23)CC12CC2 | > 7.00 |
| O=C(c1ccc(S(=O)(=O)NCC2CCCO2)cc1)N1CCN(c2ncnc3[nH]ccc23)CC12CC2 (centres unmarked) | > 7.00 |

Please report the recorded pEC50 for `N#Cc1ccccc1C(=O)N1[C@@H]2CC[C@@H]1CN(c1ncnc3[nH]ccc13)C2` .
> 7.00

Please report the recorded pEC50 for `O=C(c1ccc2[nH]ccc2c1)N1[C@@H]2CC[C@H]1CN(c1ncnc3[nH]ccc13)C2` .
> 7.00

Please report the recorded pEC50 for `N#Cc1cccc(CC(=O)N2CCN(c3ccnc4[nH]ccc34)CC23CC3)c1` .
< 6.30

Please report the recorded pEC50 for `N#CCc1ccc(C(=O)N2CCN(c3ccnc4[nH]ccc34)CC23CC3)cc1` .
> 7.00

Please report the recorded pEC50 for `O=C(c1ccncc1)N1[C@@H]2CC[C@@H]1CN(c1ncnc3[nH]ccc13)C2` .
> 7.00

###

The following compounds are listed with their measured EC50 values.
Target: TYK2 (aa 871-1187, catalytic domain, GST-tag) (Homo sapiens, UniProt P29597)
Construct: JAK1 (aa 850-1154) and TYK2 (aa 871-1187) are expressed with an N-terminally fused GST-tag; GST (N); purchased Carna Biosciences, Inc; host or cells: baculovirus expression system
Test: JAK kinase assay (HTRF, phosphorylation of TK substrate-biotin), TYK2
Type: biochemical
Conditions: ATP at Km (13 μM); read-out: TYK2 kinase inhibitory activity (EC50 indicator)

# annotated cases, reported EC50 shown
| COMPOUND | TGT | EC50 |
| --- | --- | --- |
| O=C(Cc1ccccc1)N1CCN(c2ncnc3[nH]ccc23)CC12CC2 [Example 152] | TYK2 (aa 871-1187, catalytic domain, GST-tag) (Homo sapiens, UniProt P29597) | 100 to 500 nM |
| O=C(c1ncco1)N1[C@@H]2CC[C@@H]1CN(c1ncnc3[nH]ccc13)C2 [Example 177] | TYK2 (aa 871-1187, catalytic domain, GST-tag) (Homo sapiens, UniProt P29597) | > 500 nM |
| N#Cc1cccc(CC(=O)N2[C@@H]3CC[C@@H]2CN(c2ncnc4[nH]ccc24)C3)c1 [Example 179] | TYK2 (aa 871-1187, catalytic domain, GST-tag) (Homo sapiens, UniProt P29597) | > 500 nM |
| O=C(C1CCOC1)N1C2CCC1CN(c1ncnc3[nH]ccc13)C2 (stereo not shown) [Example 144] | TYK2 (aa 871-1187, catalytic domain, GST-tag) (Homo sapiens, UniProt P29597) | > 500 nM |
| O=C([C@@H]1CCCc2ccccc21)N1C2CCC1CN(c1ncnc3[nH]ccc13)C2 [Example 137] | TYK2 (aa 871-1187, catalytic domain, GST-tag) (Homo sapiens, UniProt P29597) | > 500 nM |

Which EC50 is reported with TYK2 (aa 871-1187, catalytic domain, GST-tag) (Homo sapiens, UniProt P29597) for this entry: CC(C)S(=O)(=O)c1ccc(C(=O)N2C3CCC2CN(c2ncnc4[nH]ccc24)C3)cc1 [Example 202] ?
> 500 nM

Which EC50 is reported with TYK2 (aa 871-1187, catalytic domain, GST-tag) (Homo sapiens, UniProt P29597) for this entry: O=C(Cc1c[nH]c2ccccc12)N1CCN(c2ncnc3[nH]ccc23)CC12CC2 [Example 14] ?
> 500 nM

Which EC50 is reported with TYK2 (aa 871-1187, catalytic domain, GST-tag) (Homo sapiens, UniProt P29597) for this entry: O=C(c1ccncc1)N1CCN(c2ncnc3[nH]ccc23)CC12CC2 [Example 3] ?
100 to 500 nM

Which EC50 is reported with TYK2 (aa 871-1187, catalytic domain, GST-tag) (Homo sapiens, UniProt P29597) for this entry: N#Cc1csc(C(=O)N2C3CCC2CN(c2ncnc4[nH]ccc24)C3)c1 [Example 199] ?
100 to 500 nM

Which EC50 is reported with TYK2 (aa 871-1187, catalytic domain, GST-tag) (Homo sapiens, UniProt P29597) for this entry: CS(=O)(=O)NCCC(=O)N1[C@@H]2CC[C@@H]1CN(c1ncnc3[nH]ccc13)C2 [Example 176] ?
> 500 nM

Which EC50 is reported with TYK2 (aa 871-1187, catalytic domain, GST-tag) (Homo sapiens, UniProt P29597) for this entry: Cc1csc(C(=O)N2CCN(c3ncnc4[nH]ccc34)CC23CC3)c1 [Example 62] ?
< 100 nM

Which EC50 is reported with TYK2 (aa 871-1187, catalytic domain, GST-tag) (Homo sapiens, UniProt P29597) for this entry: O=C(c1cccc(C(F)(F)F)c1)N1CCN(c2ncnc3[nH]ccc23)CC12CC2 [Example 20] ?
100 to 500 nM

Which EC50 is reported with TYK2 (aa 871-1187, catalytic domain, GST-tag) (Homo sapiens, UniProt P29597) for this entry: N#Cc1ccc(CC(=O)N2CCN(c3nc(NC(=O)c4ccno4)nc4[nH]ccc34)CC23CC3)cc1 [Example 99] ?
> 500 nM

Which EC50 is reported with TYK2 (aa 871-1187, catalytic domain, GST-tag) (Homo sapiens, UniProt P29597) for this entry: O=C(NC1CCCCC1)N1[C@@H]2CC[C@H]1CN(c1ncnc3[nH]ccc13)C2 [Example 46] ?
> 500 nM

Which EC50 is reported with TYK2 (aa 871-1187, catalytic domain, GST-tag) (Homo sapiens, UniProt P29597) for this entry: CC(C#N)c1cccc(C(=O)N2CCN(c3ncnc4[nH]ccc34)CC23CC3)c1 (stereo not shown) [Example 8] ?
> 500 nM
